Each entry below carries its reported binding (fold over iso).
TARGET_DESC: T1, human LILRB5 (human, UniProt O75023 24-590)
T1 construct: Over-expressed on CHO-s cells; also called hLILRB5
METHOD_NOTES: flow cytometry, LILRB5 CHOs
Protocol: To test for specificity to hLILRB2 and not towards any of the ten LILR family members, a multiplexed cell-based barcoding approach was used by staining cells with Far Red and/or Violet Cell Trace dyes (Thermo Scientific) according to manufacturer's protocol or left unstained. […] Samples were analyzed using the Celesta flow cytometer analyzer (BD Biosciences). Geometric mean fluorescence intensity (gMFI) of PE was determined for each antibody across each cell line. […]
Enter your answer as a number in fold over iso; do not include the unit.

Worked cases, binding (fold over iso) given:
J-19.h2 (antibody, human IgG4 S228P, kappa, V domains shown, Humanized, human IgG4 backbone) VH: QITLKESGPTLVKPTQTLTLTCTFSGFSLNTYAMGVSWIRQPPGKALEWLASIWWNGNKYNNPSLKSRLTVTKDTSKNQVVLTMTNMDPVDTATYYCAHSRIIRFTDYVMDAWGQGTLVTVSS VL: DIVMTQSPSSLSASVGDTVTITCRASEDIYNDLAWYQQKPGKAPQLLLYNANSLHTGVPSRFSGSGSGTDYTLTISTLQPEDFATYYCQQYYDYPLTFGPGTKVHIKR = 0.76
J-19.h4 (antibody, human IgG4 S228P, kappa, V domains shown, Humanized, human IgG4 backbone) VH: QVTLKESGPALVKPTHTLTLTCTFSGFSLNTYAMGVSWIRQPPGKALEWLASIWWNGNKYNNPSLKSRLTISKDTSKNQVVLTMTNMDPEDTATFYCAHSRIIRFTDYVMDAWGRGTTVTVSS VL: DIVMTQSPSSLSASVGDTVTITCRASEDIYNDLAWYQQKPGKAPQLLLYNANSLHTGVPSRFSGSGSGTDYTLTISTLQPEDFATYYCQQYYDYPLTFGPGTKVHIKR = 1.27
J-19.h3 (antibody, human IgG4 S228P, kappa, V domains shown, Humanized, human IgG4 backbone) VH: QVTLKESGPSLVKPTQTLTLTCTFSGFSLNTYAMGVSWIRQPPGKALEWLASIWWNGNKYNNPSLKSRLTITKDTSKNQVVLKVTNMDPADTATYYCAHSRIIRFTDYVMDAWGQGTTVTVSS VL: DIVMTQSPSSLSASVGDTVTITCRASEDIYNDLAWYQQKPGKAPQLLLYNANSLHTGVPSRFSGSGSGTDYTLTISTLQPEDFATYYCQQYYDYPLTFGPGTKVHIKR = 0.95

Next binder, binding (fold over iso) to be filled in.
get_value(item= J-19.h1 (antibody, human IgG4 S228P, kappa, V domains shown, Humanized, human IgG4 backbone) VH: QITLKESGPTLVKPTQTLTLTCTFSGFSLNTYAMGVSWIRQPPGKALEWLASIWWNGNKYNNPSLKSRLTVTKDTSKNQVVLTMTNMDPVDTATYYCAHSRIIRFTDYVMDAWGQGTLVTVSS VL: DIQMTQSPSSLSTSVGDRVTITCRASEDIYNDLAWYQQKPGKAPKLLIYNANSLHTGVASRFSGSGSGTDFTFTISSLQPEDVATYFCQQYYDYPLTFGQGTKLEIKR , readout=binding (fold over iso)) returns 1.01
